# tested.on: Sterol O-acyltransferase 1 (Rattus norvegicus)
# experiment.description: Liver Acyl coenzyme A:cholesterol acyltransferase inhibitory activity was determined in vitro using [1-14C]oleolyl-CoA and microsomes isolated from the livers of cholesterol fed rats
# Design: species or system Microsome
Labelling field: enter Criterion met if recorded IC50 is less than 40 nM. Enter Criterion not met if it equals or exceeds that cut-off.

Worked cases, answers included:
compound	label.class
CCCCCCCCCCCCn1nnc(N(C(=O)Nc2c(C(C)C)cccc2C(C)C)C2CCCCC2)n1	Criterion met
CCCCCCCCCCCCn1nnc(N(Cc2ccccc2)C(=O)Nc2c(OC)cc(OC)cc2OC)n1	Criterion met
CCCCCCCCCCCCn1nnc(N(CCCCCCC)C(=O)Nc2c(OC)cc(OC)cc2OC)n1	Criterion not met
CCCCCCCCCCCCCCn1nnc(N(C(=O)Nc2c(OC)cc(OC)cc2OC)c2ccccc2)n1	Criterion not met

Now for another entry.
Lab note: IC50 threshold 40 nM. Does this compound come in strictly under it? CC(C)c1cccc(C(C)C)c1NC(=O)N(c1ccccc1)c1nnn(CCCCCCCCOC2CCCCO2)n1 (configuration not stated)
Criterion met

* * *

# tested.on: Sterol O-acyltransferase 1 (Mus musculus)
# Sequence (Q61263 whole entry): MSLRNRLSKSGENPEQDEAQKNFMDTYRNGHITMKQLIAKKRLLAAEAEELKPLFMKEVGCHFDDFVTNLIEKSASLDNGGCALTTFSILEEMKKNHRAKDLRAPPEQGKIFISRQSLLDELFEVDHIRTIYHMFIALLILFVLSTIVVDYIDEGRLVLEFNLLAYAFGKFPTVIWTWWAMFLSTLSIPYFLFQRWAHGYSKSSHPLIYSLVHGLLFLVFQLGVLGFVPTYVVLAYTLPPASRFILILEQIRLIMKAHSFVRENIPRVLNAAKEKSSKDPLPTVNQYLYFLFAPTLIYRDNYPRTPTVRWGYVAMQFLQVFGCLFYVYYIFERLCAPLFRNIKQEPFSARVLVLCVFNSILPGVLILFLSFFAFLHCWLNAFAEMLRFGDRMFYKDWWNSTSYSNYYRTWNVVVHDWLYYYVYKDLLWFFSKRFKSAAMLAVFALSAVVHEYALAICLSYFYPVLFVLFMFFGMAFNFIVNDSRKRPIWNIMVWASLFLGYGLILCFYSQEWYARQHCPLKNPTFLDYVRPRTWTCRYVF
# experiment.description: Compound was tested for its ability to penetrate the cell wall and inhibit macrophage ACAT in cell culture using murine IC-21 macrophages (MAI)
# Type: functional
measure: pIC50
Just the number, please; pIC50 means minus log10 of the concentration in mol/L.

These recorded examples may help you get a feel for the data.
compound	tested.on	pIC50
CCCCCCCCCCCCn1nnc(N(C(=O)Nc2c(OC)cc(OC)cc2OC)c2ccccc2)n1	Sterol O-acyltransferase 1 (Mus musculus)	6.05
CCCCCCCCCCCCn1nnc(N(C(=O)Nc2c(C(C)C)cccc2C(C)C)C2CCCCC2)n1	Sterol O-acyltransferase 1 (Mus musculus)	5.51

Moving on to another molecule below.
Looking up CCCCCCCCCCCCn1nnc(N(C(=O)Nc2c(C(C)C)cccc2C(C)C)c2ccccc2)n1 , I see its pIC50 listed as 6.62

* * *

# tested.on: Sterol O-acyltransferase 1 (Rattus norvegicus)
# Sequence (O70536 whole entry): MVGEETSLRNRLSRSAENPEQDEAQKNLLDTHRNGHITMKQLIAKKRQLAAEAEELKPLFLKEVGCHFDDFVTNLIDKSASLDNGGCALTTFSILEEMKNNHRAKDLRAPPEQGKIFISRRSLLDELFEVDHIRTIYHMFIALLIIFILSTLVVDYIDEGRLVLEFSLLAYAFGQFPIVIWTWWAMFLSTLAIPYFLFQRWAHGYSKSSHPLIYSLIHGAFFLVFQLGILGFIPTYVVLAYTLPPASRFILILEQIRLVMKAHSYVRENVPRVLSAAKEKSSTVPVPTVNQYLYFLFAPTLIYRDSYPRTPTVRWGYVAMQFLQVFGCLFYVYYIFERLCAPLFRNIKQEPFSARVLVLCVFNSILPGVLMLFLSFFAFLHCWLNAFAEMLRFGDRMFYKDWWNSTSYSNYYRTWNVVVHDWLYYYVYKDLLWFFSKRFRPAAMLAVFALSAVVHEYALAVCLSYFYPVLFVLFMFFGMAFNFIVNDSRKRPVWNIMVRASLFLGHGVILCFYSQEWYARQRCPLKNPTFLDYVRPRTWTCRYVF
# experiment.description: Liver ACAT inhibitory activity was determined in vitro using [1-14C]oleolyl-CoA and microsomes isolated from the livers of cholesterol fed rats
# Design: species or system Microsome
Attribute: pIC50
Just the number, please; pIC50 means minus log10 of the concentration in mol/L.

These recorded examples may help you get a feel for the data.
compound	pIC50
CCCCCCCCCCCCn1nnc(N(C(=O)Nc2c(OC)cc(OC)cc2OC)c2ccccc2)n1	7.21
CCCCCCCCCCCCn1nnc(N(C(=O)Nc2c(OC)cc(OC)cc2OC)C2CCCCC2)n1	7.24

Looking up CCCCCn1nnc(N(C(=O)Nc2c(OC)cc(OC)cc2OC)c2ccccc2)n1 , I see its pIC50 listed as 6.35
